Data provenance: PubChem BioAssay AID2060897

Consider the following molecules and their measured viability, T/C readings.
System: 966289-007-R4-J1-PDC complex spheroid viability
assay.remarks: Anticancer human tumor 966289-007-R4-J1-PDC patient-derived pancreatic adenocarcinoma cell line growth inhibition [RAS]
measurement.setup: second compound 0.1 µM; first compound 0.316 µM; stronger effect = lower value
Return type: number; implicit unit %.

Nc1ccn(C2OC(CO)C(O)C2(F)F)c(=O)n1 (stereo not given) + C=CC(=O)N1CCN(c2nc(OCC3CCCN3C)nc3c(F)c(-c4nc(N)cc(C)c4C(F)(F)F)c(Cl)cc23)C(C)C1    1.15
C[C@@H](NC(=O)c1ncnc(N)c1Cl)c1ncc(C(=O)Nc2cc(C(F)(F)F)c(Cl)cn2)s1 + C#Cc1c(F)ccc2cc(O)cc(-c3ncc4c(N5CC6CCC(C5)N6)nc(OCC56CCCN5CC(F)C6)nc4c3F)c12    103
CCC(CC)c1cc(NC2CCC(N)C2)n2nccc2n1 (stereo not given) + C=CC(=O)N1CCN(c2nc(OCC3CCCN3C)nc3c(F)c(-c4nc(N)cc(C)c4C(F)(F)F)c(Cl)cc23)C(C)C1    111
CC(Nc1ccc2c(c1)OCCn1cc(N3C(=O)OCC3C(F)F)nc1-2)C(N)=O (stereo not given) + C=CC(=O)N1CCN(c2nc(OCC3CCCN3C)nc3c(F)c(-c4nc(N)cc(C)c4C(F)(F)F)c(Cl)cc23)C(C)C1    115
CC(C)NCC(C(=O)N1CCN(c2ncnc3c2C(C)CC3O)CC1)c1ccc(Cl)cc1 (stereo not given) + C=CC(=O)N1CCN(c2nc(OCC3CCCN3C)nc3c(F)c(-c4nc(N)cc(C)c4C(F)(F)F)c(Cl)cc23)C(C)C1    132
CC(C)NCC(C(=O)N1CCN(c2ncnc3c2C(C)CC3O)CC1)c1ccc(Cl)cc1 (stereo not given) + C#Cc1c(F)ccc2cc(O)cc(-c3ncc4c(N5CC6CCC(C5)N6)nc(OCC56CCCN5CC(F)C6)nc4c3F)c12    124

Entry under test: O=C(c1ccc(F)c(F)c1Nc1ccc(I)cc1F)N1CC(O)([C@@H]2CCCCN2)C1 + C#Cc1c(F)ccc2cc(O)cc(-c3ncc4c(N5CC6CCC(C5)N6)nc(OCC56CCCN5CC(F)C6)nc4c3F)c12 . Its viability, T/C was 64.5

Entry under test: NC1c2ccccc2OC12CCN(c1cnc3c(N4CCCc5ncccc54)n[nH]c3n1)CC2 (stereo not given) + C=CC(=O)N1CCN(c2nc(OCC3CCCN3C)nc3c(F)c(-c4nc(N)cc(C)c4C(F)(F)F)c(Cl)cc23)C(C)C1 . Its viability, T/C was 94.2

Entry under test: C=CC(=O)Nc1cc(Nc2nccc(-c3cn(C)c4ccccc34)n2)c(OC)cc1N(C)CCN(C)C + C=CC(=O)N1CCN(c2nc(OCC3CCCN3C)nc3c(F)c(-c4nc(N)cc(C)c4C(F)(F)F)c(Cl)cc23)C(C)C1 . Its viability, T/C was 85.4

Entry under test: NC1c2ccccc2OC12CCN(c1cnc3c(N4CCCc5ncccc54)n[nH]c3n1)CC2 (stereo not given) + C#Cc1c(F)ccc2cc(O)cc(-c3ncc4c(N5CC6CCC(C5)N6)nc(OCC56CCCN5CC(F)C6)nc4c3F)c12 . Its viability, T/C was 95.5

====

Consider the following compounds and their measured viability, T/C readings.
Tested on: 966289-007-R4-J1-PDC complex spheroid viability
assay.remarks: Anticancer human tumor 966289-007-R4-J1-PDC cell line growth inhibition [RAS];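 note: spheroids exposed to agents for one week before readout; percent viability relative to DMSO vehicle control wells as 100%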
measurement.setup: second compound 0.03 µM; first compound 1 µM; stronger effect = lower value
Return type: number; implicit unit %.

Look over these answered cases.
C=CC(=O)Nc1cc(Nc2nccc(-c3cn(C)c4ccccc34)n2)c(OC)cc1N(C)CCN(C)C + CCn1c(-c2cccnc2C(C)OC)c2c3cc(ccc31)N1CCOC(CC(NC(=O)C(C(C)C)N(C)C(=O)C3(F)CCN(C(=O)C#CC(C)(C)N(C)C)CC3)C(=O)N3CCCC(N3)C(=O)OCC(C)(C)C2)C1    77.5
CC1(O)CCCC1n1c(=O)c(C(F)F)cc2cnc(NC3CCN(S(C)(=O)=O)CC3)nc21 (centres undefined) + CCn1c(-c2cc(N3CCN(C)CC3)cnc2C(C)OC)c2c3cc(ccc31)-c1csc(n1)CC(NC(=O)C1CC1C)C(=O)N1CCCC(N1)C(=O)OCC(C)(C)C2    23.7
C=CC(=O)N1CCN(c2nc(OCC3CCCN3C)nc3c(F)c(-c4nc(N)cc(C)c4C(F)(F)F)c(Cl)cc23)C(C)C1 (centres undefined) + CCn1c(-c2cccnc2C(C)OC)c2c3cc(ccc31)N1CCOC(CC(NC(=O)C(C(C)C)N(C)C(=O)C3(F)CCN(C(=O)C#CC(C)(C)N(C)C)CC3)C(=O)N3CCCC(N3)C(=O)OCC(C)(C)C2)C1    85.3

Let us examine a further case.
Entry under test: Cc1nc(N2CCC3(CC2)COC(C)C3N)c(CO)nc1Sc1ccnc(N)c1Cl (centres undefined) + CCn1c(-c2cc(N3CCN(C)CC3)cnc2C(C)OC)c2c3cc(ccc31)-c1csc(n1)CC(NC(=O)C1CC1C)C(=O)N1CCCC(N1)C(=O)OCC(C)(C)C2 . Its viability, T/C was 107
